Where do these numbers come from? They come from PubChem BioAssay (NCI).

Tested on: NCI-H226 lung
Assay: NCI tumour cell line growth inhibition, 48 h
readout-label: TGI (µM)
The reply should contain only the number, in µM.

Solved cases below.
> print(dat)
                                   compound  observed.measurement
1  CCC(=O)Nc1ccc(N2C(=O)/C(=C/c3ccc(O)c(OC)c3)N=C2c2ccccc2)cc1                  50.5
2  COC(C[C@H]1CCCC[C@]1(O)/C(=C\CO[Si](C(C)C)(C(C)C)C(C)C)Sc1ccccc1)OC                  62.4

Req: Quick one: TGI of COC(=O)c1c(C)cccc1C1CN=NC12Cc1cccc(C)c1C2=O (centres undefined) ?
Resp: 98.4

Req: Quick one: TGI of COc1ccccc1-[n+]1cc(-c2ccc(-c3ccccc3)cc2)n2c1CCCCC2 ?
Resp: 13.4

Req: Quick one: TGI of C=C1[C@@H](C)[C@H]2[C@H](Cc3ccccc3)NC(=O)[C@]23OC(=O)/C=C/[C@H](O)CCC[C@@H](C)C/C=C/[C@H]3[C@@H]1O ?
Resp: 23.4

====

Catalogue of TGI readings, one per entry.
Test system: MALME-3M melanoma
Test: NCI tumour cell line growth inhibition, 48 h
The reply should contain only the number, in µM.

Solved cases below.
compound	observed-measurement
CC(C)CCCC(C)[C@H]1CC[C@H]2NCCCC[C@]12C (some centres undefined)	16.4
CC(=O)NC1C(OCc2ccccc2)OC(CO)C(O)C1OCC(=O)N[C@@H](C)C(=O)N[C@H](CCC(=O)NCCCCNc1c2ccccc2nc2cccc([N+](=O)[O-])c12)C(N)=O (some centres undefined)	3.68
COc1cc(Nc2nc3cc(N)cc(N)c3nc2-c2ccccc2)cc(OC)c1	24.6
C=C(C)C(=O)O[C@H]1CC2(CO)O[C@@H]2CC/C(COC(C)=O)=C/C2OC(=O)C(=C)[C@@H]21 (some centres undefined)	62.2
CCCCCCCCCCC/C(=N/O)c1ccc(O)c2ncccc12	12.6
O=C1c2cccc3cc([N+](=O)[O-])cc(c23)C(=O)N1CCNCCNCCNCCN1C(=O)c2cccc3cc([N+](=O)[O-])cc(c23)C1=O	0.297

Next item in the queue.
Req: Write down the reported TGI of Cc1ccc(C2(N3CCOCC3)OC(C)(C)c3cccc4cccc2c34)cc1 (centres undefined) , test system: MALME-3M melanoma.
Resp: 36.9

====

Test system: MDA-N
Test: NCI tumour cell line growth inhibition, 48 h
readout-label: TGI

Solved cases below.
> print(dat)
                                   compound  target  observed.measurement
1  C=C1[C@@H](C)[C@H]2[C@H](Cc3ccccc3)NC(=O)[C@]23OC(=O)/C=C/[C@H](O)CCC[C@@H](C)C/C=C/[C@H]3[C@@H]1O   MDA-N              > 100 µM
2  COc1ccc(C(=O)/C=C/c2ccc(OCCCOc3ccc(/C=C/C(=O)c4ccc(OC)c(OC)c4)cc3)cc2)cc1OC   MDA-N              > 100 µM
3  COc1cc2oc(=O)ccc2cc1C1OC(=O)C2OC21C (stereo not given)   MDA-N              > 100 µM
4        CCOC(=O)c1nc2ccccc2nc1Nc1ccc(F)cc1   MDA-N              > 100 µM
5  CCOC(=O)NC(OCc1ccccc1)(C(=O)OC)C(F)(F)F (stereo not given)   MDA-N              > 100 µM
6  COC(CC1(CCNc2ccccc2)C(=O)N(COCC[Si](C)(C)C)c2ccccc21)OC (stereo not given)   MDA-N             > 68.2 µM

Req: Quick one: TGI of O=C1NC(=S)N/C1=C\c1ccc(Sc2ccccc2C(=O)O)s1 ?
Resp: > 100 µM

Req: Quick one: TGI of COC(=O)NC(Nc1ccc(C)cc1)(C(F)(F)F)C(F)(F)F ?
Resp: > 100 µM

Req: Quick one: TGI of Clc1ccc(Cc2nc3ccccc3nc2-c2cccc(Cl)c2)cc1 ?
Resp: 5.64 µM

Req: Quick one: TGI of Cn1c(O)c(/C=N/c2ncccn2)c(=O)[nH]c1=O ?
Resp: > 100 µM

====

Catalogue of TGI readings, one per entry.
System: NCI-H23 lung
Assay: NCI tumour cell line growth inhibition, 48 h

Req: Write down the reported TGI of CN1C(=O)C(CCO)(C(C)(C)C)c2ccccc21 (stereo not drawn) , test system: NCI-H23 lung.
Resp: > 100 µM

Req: Write down the reported TGI of CCN(CC)c1ccc(/C=C\c2cc(C)c3cc(C)ccc3n2)cc1 , test system: NCI-H23 lung.
Resp: > 100 µM

Req: Write down the reported TGI of CC(=O)O[C@H]1C(=O)[C@@]2(C)C(C(OC(=O)c3ccccc3)[C@]3(O)CC(OC(=O)[C@H](OC(=O)CCC(=O)O)C(NC(=O)c4ccccc4)c4ccccc4)C(C)=C1C3(C)C)C1(OC(C)=O)COC1C[C@@H]2OC(=O)CCC(=O)O (stereo partly drawn) , test system: NCI-H23 lung.
Resp: > 100 µM

Req: Write down the reported TGI of O=C(O)c1cc(Nc2c(O)c3c(c(O)c2Cl)C(=O)C=CC3=O)ccc1O , test system: NCI-H23 lung.
Resp: > 10 µM

Req: Write down the reported TGI of O=c1n(C2CCCCC2)c(=C(Cl)Cl)c(=C(Cl)Cl)n1C1CCCCC1 , test system: NCI-H23 lung.
Resp: > 100 µM

====

Test system: SK-MEL-5 melanoma
Experiment: NCI tumour cell line growth inhibition, 48 h
Catalogue of TGI readings, one per entry.

Solved cases below.
> print(dat)
                                  compound  readout.label  observed.measurement
1       CC(=O)Nc1ccc(/C=C/[N+](=O)[O-])cc1            TGI               5.97 µM
2  Cc1cc(C)c(C#N)c(SC(=S)NC(=O)c2ccccc2)n1            TGI              > 100 µM
3    Cc1ccc(Cl)c2c(=O)cc(-c3ccccc3)[nH]c12            TGI              > 100 µM

Req: Write down the reported TGI of COc1cc2oc(=O)ccc2cc1C1OC(=O)C2OC21C (centres undefined) , test system: SK-MEL-5 melanoma.
Resp: > 100 µM

====

Catalogue of TGI readings, one per entry.
System: CCRF-CEM leukemia
Experiment: NCI tumour cell line growth inhibition, 48 h
The reply should contain only the number, in µM.

Solved cases below.
molecule	target	readout-label	observed-measurement
Cc1ccc(C(CN(C)C)C(=O)c2ccccc2)cc1 (stereo unspecified)	CCRF-CEM leukemia	TGI	10.6
C=C1CN=C(Nc2ccc(F)cc2F)S1	CCRF-CEM leukemia	TGI	66.1
CCC1(O)CC(O)c2c(O)c3c(c(O)c2C1C(=O)OC)C(=O)c1cccc(O)c1C3=O (stereo unspecified)	CCRF-CEM leukemia	TGI	9.71
CCCCCCCCCCC[N+]1(Cc2ccccc2)CC2CCN(Cc3ccccc3)CC2C1 (stereo unspecified)	CCRF-CEM leukemia	TGI	1.14
C=C1C(=O)O[C@H]2[C@H]1CC/C(COC(=O)NCc1cc3ccccc3[nH]1)=C\CC[C@@]1(C)O[C@@H]21	CCRF-CEM leukemia	TGI	3.36

Req: Quick one: TGI of Oc1ccc(/C=N\Nc2ccccn2)c(O)c1 ?
Resp: 8.71

====

Test system: MDA-MB-435
Assay: NCI tumour cell line growth inhibition, 48 h
Label NO if TGI falls below 30 µM; label YES in every other case.

Solved cases (8 shown):
compound	target	class-name
Cc1ccc(C2(N3CCOCC3)OC(C)(C)c3cccc4cccc2c34)cc1 (stereo not given)	MDA-MB-435	YES
O=P1(N(CCCl)CCCl)NCCCO1 (stereo not given)	MDA-MB-435	YES
C=C1C(=O)O[C@H]2[C@H]1CC/C(COC(=O)NCc1cc3ccccc3[nH]1)=C\CC[C@@]1(C)O[C@@H]21	MDA-MB-435	NO
C1CC[N-]CC1.C1CC[N-]CC1.C1CC[N-]CC1.C1CC[N-]CC1.[Cl][Rh][Cl]	MDA-MB-435	YES
Cc1ccc(S(=O)(=O)CC2CCCn3c2c(C#N)c2ccccc23)cc1 (stereo not given)	MDA-MB-435	YES
O=c1[nH]nc(N/N=C\c2ccc(Cl)cc2)c2ccccc12	MDA-MB-435	YES
C[C@@H]1C=C(CCCCCCCCCCC[C@H](O)[C@@H]2CCC(=O)O2)C(=O)O1	MDA-MB-435	YES
O=Cc1c(-c2cc(O)ccc2O)nc2sccn12	MDA-MB-435	YES

Req: Does TGI meet or surpass 30 µM for OC1(C(O)(c2ccc(-c3ccccc3)cc2)c2ccc(-c3ccccc3)cc2)CCCCC1 ?
Resp: YES
